Recorded measurements of IC50, one per entry
system: SKMEL-5 melanoma; experiment: MTT cytotoxicity assay, SKMEL-5; details: Homo sapiens, SK-MEL-5, […], read-out: Cytotoxicity ED50, SKMEL-5
property: IC50 (nM)

COc1cccc(/C=C(/C(=O)O)c2cc(OC)c(OC)c(OC)c2)c1 [compound 23b] | 50
COc1cc(/C=C\c2ccccc2)cc(OC)c1OC | 120
COc1ccc(/C=C\c2cc(OC)c(OC)c(OC)c2)cc1 | 0.26
COc1ccc(NCc2cc(OC)c(OC)c(OC)c2)cc1 [compound 12a] | 0.7
COc1cc(/C=C/c2ccc(C)cc2)cc(OC)c1OC [16d] | 800
COc1cc(/C=C\c2ccc(SC)cc2)cc(OC)c1OC [compound 15c] | 0.004

Cited source: patent US5430062A
